src = PubChem BioAssay AID1671190

- system: Polyunsaturated fatty acid lipoxygenase ALOX12 (Homo sapiens)
- assay text: Primary qHTS assay for inhibitors of human arachidonate 12S-lipoxygenase (ALOX12): Round 2; note: potency is the fitted concentration of half-maximal effect
- settings: purified 12hLO, xylenol orange hydroperoxide absorbance; series mostly up to 108 µM
The whole screen tested about 580,000 compounds, of which about 6,100 (1.1%) were called active. Inconclusive results (about 15%) are left out. The full list was thinned out, with actives kept by preference.
reported endpoint: Potency

{"molecule": "COc1cc2c(cc1O)NC(=O)CC2c1cn[nH]c1-c1cc(C)ccc1C (centres undefined)", "measurement": "inactive"}
{"molecule": "Cc1cc(C)c(/C=N/NC(=O)c2ccccc2)c(C)c1", "measurement": "inactive"}
{"molecule": "O=C(CSc1nnc(Cc2ccccc2)n1-n1cccc1)Nc1ccccc1", "measurement": "inactive"}
{"molecule": "N#Cc1ccccc1Sc1ccccc1C(=O)Nc1ccc2c(c1)CCC2", "measurement": "20 µM (active)"}
{"molecule": "O=C(Cc1cccc2ccccc12)NCCc1cccc2cccnc12", "measurement": "inactive"}

Each of the following entries comes with a recorded value; kindly state Potency for each.
1. COc1ccc(-c2noc(C(=O)O)c2[C@@H](C)NS(=O)(=O)c2ccccc2)cc1
2. C[C@@H](NC(=O)COc1ccccc1)c1c(-c2ccc(F)cc2)noc1C(=O)O
3. CCc1nnsc1C(=O)N(C)Cc1c(F)cccc1Cl
4. Cc1ccc(NC(=S)NC(=O)c2ccc(-c3ccccc3)cc2)c(C)c1
5. C[C@@H](NC(=O)c1cccnc1)c1c(-c2ccc(F)cc2)noc1C(=O)O

Result:
["inactive", "inactive", "inactive", "17.8 µM (active)", "39.8 µM (active)"]

# batch: return Potency for each of the 4 molecules below
1. COc1ccc(NC2CC(=O)N(C)C2=O)cc1 (centres undefined)
2. N#Cc1ccccc1Sc1ccccc1C(=O)NC1CCCCC1
3. Cc1ccccc1Nc1scc(-c2ccc(Br)cc2)[n+]1-c1ccccc1C
4. CCOC(=O)N1CCN(C(=S)Nc2ccc(C)cc2C)CC1

Result:
1: inactive; 2: inactive; 3: inactive; 4: inactive
